Taken from PubChem BioAssay (NCI).

experiment: NCI Yeast Anticancer Drug Screen. Data for the mec2-1 strain (AID 157); settings: S. cerevisiae mec2-1 strain, at 50.0 µM, hits give high values
This is part of a sample that, as a whole, favours compounds with a hit. Of some 79,000 tested, about 15% had one in any assay. Activity calls are given as the source filed them. No stated cut-off is given here; in the data, active means growth inhibition above about 70%; inactive means the rest.
Here, each record is paired with measured growth inhibition data.

Previously resolved entries follow.
Give the reported growth inhibition for this molecule. "CCOC(=O)/C(F)=C/c1cccc([N+](=O)[O-])c1" 8.8% (inactive)

Give recorded growth inhibition. "COc1ccc(C2=Nn3c(nc4sc(-c5ccccc5)cc4c3=O)SC2)cc1" -9.15% (inactive)

Name the recorded growth inhibition of the molecule listed here: "C(=N/Nc1ccccc1)/c1ccco1" -1% (inactive)

---
Name the recorded growth inhibition of the molecule listed here: "O=C(NCCCl)Nc1[nH]c(=O)ncc1I" -6.7% (inactive)

Supply reported growth inhibition belonging to this molecule: "C/C(=N\O)c1ccc(OCc2cc(C(F)(F)F)cc(C(F)(F)F)c2)cc1" -26.2% (inactive)

Provide growth inhibition value for the following molecule: "c1csc(CNc2cccc3ccccc23)c1" 25% (inactive)

Read off the recorded growth inhibition for N=S(=O)(c1ccccc1)c1ccccc1[N+](=O)[O-] (stereo not given) 17.9% (inactive)

Answer with the recorded growth inhibition of "COc1ccc2[nH]c3c(c(=O)c2c1)CCCC3" only. -12.9% (inactive)

Could you please provide reported growth inhibition for "CCOC(=O)NC(Nc1ccc(C(=O)O)cc1)(C(F)(F)F)C(F)(F)F" ? Thanks! -10.8% (inactive)

For the molecule "COc1cccc2c1oc(=O)c1ccccc12" , give its measured growth inhibition value. -6.75% (inactive)

State, in one line, measured growth inhibition of "CNC(=O)OCc1c(COC(=O)NC)c2n(c1C)CSC2" -14.4% (inactive)

State its growth inhibition for this molecule: "CCOc1ccc(NC(=O)Nc2cccc(Cl)c2C)cc1" 9.25% (inactive)

Answer with the recorded growth inhibition of Cc1cn(C2CC(N)C(C(=O)NCC(=O)O)O2)c(=O)[nH]c1=O (stereo not given) only. -54.5% (inactive)

Annotate the molecule "COc1ccc(S(=O)(=O)N(CC(=O)O)c2ccccc2)cc1" with its measured growth inhibition. -6% (inactive)

Supply recorded growth inhibition for COC1C(C(=O)O)=CC=CC1OC(C)=O (stereo not given) here. -5.45% (inactive)

Recall and state the measured growth inhibition for "NC(=S)N/N=C(/CC(=O)c1ccc([N+](=O)[O-])cc1)C(=O)Nc1ncc([N+](=O)[O-])s1" . 29% (inactive)

Provide only the value of recorded growth inhibition for CCOC(=O)C(OCC1CC=CCC1)Sc1ccccc1 (stereo not given) -24.6% (inactive)

Input "CO/N=C1C=C/C(=N\OC)C\1" , output reported growth inhibition. -28.2% (inactive)
